We begin with a simple list: items and their reported pIC50.
molecular target: Transient receptor potential cation channel subfamily V member 1 (Homo sapiens); test: Antagonist activity in pH 5.5-induced FLIPR assays in HEK293 cells expressing human TRPV1; type: functional, cell-based
Sequence (Q8NER1 whole entry): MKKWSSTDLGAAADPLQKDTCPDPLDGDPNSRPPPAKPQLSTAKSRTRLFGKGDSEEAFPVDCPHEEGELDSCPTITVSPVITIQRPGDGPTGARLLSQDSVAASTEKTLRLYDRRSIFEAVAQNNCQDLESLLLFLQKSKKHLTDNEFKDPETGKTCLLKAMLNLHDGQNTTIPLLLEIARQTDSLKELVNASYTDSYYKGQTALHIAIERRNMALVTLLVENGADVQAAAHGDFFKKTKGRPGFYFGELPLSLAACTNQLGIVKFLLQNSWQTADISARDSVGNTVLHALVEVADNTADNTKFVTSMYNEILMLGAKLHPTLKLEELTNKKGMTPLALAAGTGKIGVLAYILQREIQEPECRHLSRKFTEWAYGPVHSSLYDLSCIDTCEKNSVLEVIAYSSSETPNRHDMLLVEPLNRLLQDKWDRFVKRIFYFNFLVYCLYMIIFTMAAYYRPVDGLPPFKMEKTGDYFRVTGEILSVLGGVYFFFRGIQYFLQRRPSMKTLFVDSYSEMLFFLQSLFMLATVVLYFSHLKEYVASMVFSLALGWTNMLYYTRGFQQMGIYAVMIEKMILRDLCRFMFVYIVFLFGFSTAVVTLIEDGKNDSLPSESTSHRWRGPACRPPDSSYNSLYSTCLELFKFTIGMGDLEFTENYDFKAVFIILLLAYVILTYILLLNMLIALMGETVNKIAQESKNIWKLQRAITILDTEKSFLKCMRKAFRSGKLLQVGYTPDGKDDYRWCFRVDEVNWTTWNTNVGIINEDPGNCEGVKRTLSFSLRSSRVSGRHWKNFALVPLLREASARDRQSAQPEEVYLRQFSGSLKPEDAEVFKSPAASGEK
The meaning of pIC50 here: minus log10 of the concentration in molar units.

Q: Consider the molecule Cc1cccnc1N1CCN(c2nc3ccc(C(C)(C)C)cc3[nH]2)[C@H](C)C1 and give its measured pIC50.
Result: 6.22

Q: Please look up its pIC50: Cc1cc2nc(N3CCN(c4ncccc4Cl)C[C@H]3C)[nH]c2cc1C
Result: 5.00

Q: Given C[C@@H]1CN(c2ncccc2Cl)CCN1c1nc2cc(C(C)(C)C)ccc2o1 , state its recorded pIC50.
Result: 5.85

Q: What does the data say about its pIC50? Entry: C[C@@H]1CN(c2ncccc2Cl)CCN1c1nc2ccc(C(C)(C)C)cc2[nH]1
Result: 6.98

Q: So what does the record say about pIC50 for CC(C)(C)c1ccc2nc(N3CCN(c4ncccc4Cl)CC3)[nH]c2c1 ?
Result: 5.77

Q: For the molecule C[C@H]1CN(c2ncccc2Cl)CCN1c1nc2ccc(C(C)(C)C)cc2[nH]1 , what pIC50 is on record?
Result: 5.44

Q: Can you share its pIC50? I mean this molecule: C[C@@H]1CN(c2ncccc2C(F)(F)F)CCN1c1nc2ccc(C(C)(C)C)cc2[nH]1
Result: 5.75
